Data credit: ChEMBL document CHEMBL2331404

assay-target: Carbonic anhydrase 9 (Homo sapiens)
value-type: Ki (nM)

// worked examples, Ki included
CCOC(=O)c1ccc(O)c(O)c1
780
COC(=O)c1ccc(O)cc1O [METHYL 2,4-DIHYDROXYBENZOATE]
890

(P) COC(=O)c1cc(O)ccc1O [METHYL 2,5-DIHYDROXYBENZOATE]
(Q) O=C(O)c1ccc(O)cc1O [2,4-DIHYDROXYBENZOIC ACID]
Ask | Returns the identifier with the smallest measured Ki among P and Q . Select an item and report its label.
Reply | P

---

Observed pKi values for UniProtKB P00915 are listed in what follows.
Sequence (P00915 whole entry): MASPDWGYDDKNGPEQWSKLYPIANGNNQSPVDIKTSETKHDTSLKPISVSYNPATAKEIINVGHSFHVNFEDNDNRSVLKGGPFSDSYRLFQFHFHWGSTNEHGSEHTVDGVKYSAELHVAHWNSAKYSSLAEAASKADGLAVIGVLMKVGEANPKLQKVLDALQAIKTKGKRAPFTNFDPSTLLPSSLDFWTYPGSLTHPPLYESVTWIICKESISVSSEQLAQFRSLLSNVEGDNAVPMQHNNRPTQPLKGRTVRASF
pKi: −log10 of the molar value.
value-type: pKi

Reference set (3 entries):
Nc1cccc(O)c1 [3-AMINOPHENOL]
5.31
CC(C)OC(=O)/C=C/c1ccc(O)cc1 [ISOPROPYL 3-(4-HYDROXYPHENYL)ACRYLATE]
6.27
COC(=O)/C=C/c1ccc(O)cc1 [METHYL P-HYDROXYCINNAMATE]
6.11

(a) COC(=O)c1ccc(O)cc1O [METHYL 2,4-DIHYDROXYBENZOATE]
(b) O=C(O)c1cc(O)ccc1O [GENTISIC ACID]
(c) COC(=O)c1ccc(O)cc1 [METHYLPARABEN]
Ask | Would you mind ranking these molecules by ascending pKi? The reply should contain the labels ordered as requested.
Reply | b, c, a
